Examples of molecules with documented efficacy (caterpillars killed) follow.
# Test system: Spodoptera frugiperda
# Experimental protocol: Spodoptera frugiperda spray test
# Type: in vivo
# Stated conditions: application rate 500 g/ha, after 7 days, maize leaf discs

Molecule	Assay system	efficacy (caterpillars killed) / %
Cn1ncc2cc(CNC(=O)c3cc(-c4ccc(OC(F)(F)F)cc4)cc(NC(=O)C4CC4)n3)cnc21	Spodoptera frugiperda	100
O=C(NC1CCC(C(F)(F)F)CC1)c1cc(-c2ccc(OC(F)(F)F)cc2)cc(NC(=O)C2CC2)n1 (stereo not shown)	Spodoptera frugiperda	83
C#CCNC(=O)c1cc(-c2ccc(C(F)(F)F)cc2)cc(NC(=O)C2CC2)n1	Spodoptera frugiperda	83
O=C(NC1CSC1)c1cc(-c2ccc(OC(F)(F)F)cc2)cc(NC(=O)C2CC2)n1	Spodoptera frugiperda	100

====

# Experimental protocol: log P by HPLC on reversed-phase column (C 18), EEC Directive 79/831 Annex V.A8
# Format: physicochemical
# Stated conditions: log P (HCOOH), acidic range pH 2.7, 0.1% aqueous formic acid and acetonitrile; reversed-phase column (C 18), 55° C.
Endpoint label: LOGP_HCOOH

Compound	Endpoint result
CC(C)ONC(=O)c1cc(-c2ccc(OC(F)(F)F)cc2)cc(NC(=O)C2CC2)n1	3.50
C[C@H](NC(=O)c1cc(-c2ccc(OC(F)(F)F)cc2)cc(NC(=O)C2CC2)n1)c1ccc(C(F)(F)F)cc1	5.01
CC(C)C(=O)Nc1cc(-c2ccc(OC(F)(F)F)cc2)cc(C(=O)NC2(C#N)CC2)n1	3.58
N#Cc1ccc(CNC(=O)c2cc(-c3ccc(C(F)(F)F)cc3)cc(N(C(=O)C3CC3)C(=O)C3CC3)n2)cc1F	4.27

====

# Experimental protocol: log P by HPLC on reversed-phase column (C 18), EEC Directive 79/831 Annex V.A8
# Type: physicochemical
# Stated conditions: log P, neutral range; HPLC on reversed-phase column (C 18), 55° C.
Here, each record is paired with measured LOGP_NEUTRAL data.
Endpoint label: LOGP_NEUTRAL

Compound	Endpoint result
N#CC1(NC(=O)c2cc(-c3ccc(OC(F)(F)F)cc3)cc(NC(=O)C3CC3)n2)CC1	3.29
CC(F)(F)c1ccc(-c2cc(NC(=O)C3CC3)nc(C(=O)NCc3ccc(C#N)cc3)c2)cc1	3.40
CC(NC(=O)c1cc(-c2ccc(OC(F)(F)F)cc2)cc(NC(=O)C2CC2)n1)c1ccc(C#N)cc1 (racemic) [Example I-158]	4.02
CCN(C(=O)C(C)C)c1cc(-c2ccc(OC(F)(F)F)cc2)cc(C(=O)NCc2ccc(C#N)cc2)n1	4.20
N#Cc1ccc(CNC(=O)c2cc(-c3ccc(OC(F)(F)F)cc3)cc(NC(=O)C3CC3)n2)nc1	3.33
O=C(NC1CCCC1)c1cc(-c2ccc(OC(F)(F)F)cc2)cc(NC(=O)C2CC2)n1	4.22
CC(NC(=O)c1cc(-c2ccc(OC(F)(F)F)cc2)cc(NC(=O)C2CC2)n1)c1ccc(C#N)cc1 (single isomer, unassigned) [Example I-218]	4.02

====

# Experimental protocol: log P by HPLC on reversed-phase column (C 18), EEC Directive 79/831 Annex V.A8
# Type: physicochemical
# Stated conditions: log P (HCOOH), acidic range at pH 2.7, 0.1% aqueous formic acid and acetonitrile; HPLC on reversed-phase column (C 18), 55° C.

Compound	LOGP_HCOOH
CN(C(=O)C1CC1)c1cc(-c2ccc(OC(F)(F)F)cc2)cc(C(=O)NCc2ccc(C#N)cc2)n1 [Example I-215]	3.85
N#Cc1ccc(CNC(=O)c2cc(-c3ccc(C(F)(F)C(F)(F)F)c(F)c3)cc(NC(=O)C3CC3)n2)cc1 [Example I-149]	4.25
CC1(NC(=O)c2cc(-c3ccc(OC(F)(F)F)cc3)cc(NC(=O)C3CC3)n2)CC1 [Example I-128]	3.84
N#Cc1ccc(CNC(=O)c2cc(-c3ccc(C(F)(C(F)(F)F)C(F)(F)F)cc3)cc(NC(=O)C3CC3)n2)cc1 [Example I-150]	4.51
N#Cc1ccc(CNC(=O)c2cc(-n3ccc(C(F)(F)C(F)(F)F)n3)cc(NC(=O)C3CC3)n2)cc1 [Example I-188]	3.70
O=C(NC1(c2ccc([N+](=O)[O-])cc2)CC1)c1cc(-c2ccc(OC(F)(F)F)cc2)cc(NC(=O)C2CC2)n1 [Example I-229]	4.23
N#Cc1ccc(CNC(=O)c2cc(-c3ncc(C(F)(F)F)cc3Cl)cc(NC(=O)C3CC3)n2)cc1 [Example I-119]	3.53

====

# Experimental protocol: log P by HPLC on reversed-phase column (C 18), EEC Directive 79/831 Annex V.A8
# Format: physicochemical
# Stated conditions: log P, neutral range; HPLC on reversed-phase column (C 18), 55° C.
# Procedure: Temperature: 55° C. […] Called log P (HCOOH) in the table. […] Called log P (neutral) in the table.
Endpoint label: LOGP_NEUTRAL

Molecule	Endpoint result
N#Cc1ccc(CNC(=O)c2cc(-c3ccc(OC(F)(F)F)cc3)cc(NC(=O)c3cnco3)n2)cc1 [Example I-212]	3.34
N#Cc1ccc(CNC(=O)c2cc(-c3ccc(N(C(F)(F)F)C(F)(F)F)cc3)cc(NC(=O)C3CC3)n2)cc1 [Example I-225]	4.34
CC(=O)N(C)c1cc(-c2ccc(OC(F)(F)F)cc2)cc(C(=O)NCc2ccc(C#N)cc2)n1 [Example I-220]	3.35
N#Cc1ccc2c(c1)CCC2NC(=O)c1cc(-c2ccc(OC(F)(F)F)cc2)cc(NC(=O)C2CC2)n1 (stereo not shown) [Example I-164]	4.24

====

# Experimental protocol: log P by HPLC on reversed-phase column (C 18), EEC Directive 79/831 Annex V.A8
# Assay type: physicochemical
# Stated conditions: log P (HCOOH), acidic range pH 2.7, 0.1% aqueous formic acid and acetonitrile; reversed-phase column (C 18), 55° C.
Endpoint label: LOGP_HCOOH

Compound	Endpoint result
CC(NC(=O)c1cc(-c2ccc(C(F)(F)F)cc2)cc(N(C(=O)C2CC2)C(=O)C2CC2)n1)c1ccc(C#N)cc1 (stereo not shown)	4.36
COC(=O)N(C(=O)C1CC1)c1cc(-c2ccc(OC(F)(F)F)cc2)cc(C(=O)NCc2ccc(C#N)cc2)n1	3.90
N#Cc1ccc(NC(=N)c2cc(-c3ccc(OC(F)(F)F)cc3)cc(NC(=O)C3CC3)n2)cc1	2.09
N#Cc1ccc(CNC(=O)c2cc(-c3ccc(C(F)(F)F)cc3)cc(NC(=O)CC3CC3)n2)cc1	3.92
N#Cc1cc(F)c(CNC(=O)c2cc(-c3ccc(C(F)(F)F)cc3)cc(NC(=O)C3CC3)n2)c(F)c1	4.00
O=C(NC1CC1)c1cc(-c2ccc(S(=O)(=O)C(F)(F)F)cc2)cc(NC(=O)C2CC2)n1	3.28
O=C(NC1CC1)c1cc(-c2ccc(I)cc2)cc(NC(=O)C2CC2)n1	3.48

====

# Tested on: Spodoptera frugiperda
# Experimental protocol: Spodoptera frugiperda spray test
# Assay type: in vivo
# Stated conditions: application rate 500 g/ha, after 7 days, maize leaf discs
A collection of molecules and their measured efficacy (caterpillars killed)

Compound	Assay system	efficacy (caterpillars killed), %
N#Cc1ccc(CNC(=O)c2cc(-c3ccc(C(F)(F)F)cc3)cc(NC(=O)C3CCC3)n2)cc1	Spodoptera frugiperda	100
N#Cc1ccc(NC(=N)c2cc(-c3ccc(OC(F)(F)F)cc3)cc(NC(=O)C3CC3)n2)cc1	Spodoptera frugiperda	100
CCC(=O)Nc1cc(-c2ccc(C(F)(F)F)cc2)cc(C(=O)NCc2ccc(C#N)cc2)n1	Spodoptera frugiperda	100
O=C(NC1(C(F)(F)F)CC1)c1cc(-c2ccc(OC(F)(F)F)cc2)cc(NC(=O)C2CC2)n1	Spodoptera frugiperda	100
N#Cc1ccc(CNC(=O)c2cc(-c3c(Cl)cc(C(F)(F)C(F)(F)F)c(F)c3Cl)cc(NC(=O)C3CC3)n2)cc1	Spodoptera frugiperda	83

====

# Experimental protocol: log P by HPLC on reversed-phase column (C 18), EEC Directive 79/831 Annex V.A8
# Format: physicochemical
# Stated conditions: log P (HCOOH), acidic range pH 2.7, 0.1% aqueous formic acid and acetonitrile; reversed-phase column (C 18), 55° C.

Molecule	LOGP_HCOOH
N#Cc1ccc(CNC(=O)c2cc(-c3ccc(C(F)(F)F)cc3)cc(NC(=O)c3ccccc3Cl)n2)cc1	4.26
N#Cc1cc(F)c(CNC(=O)c2cc(-c3ccc(C(F)(F)C(F)(F)F)c(F)c3)cc(NC(=O)C3CC3)n2)c(F)c1	4.55
N#Cc1ccc(CNC(=O)c2cc(-c3ccc(SC(F)(F)F)cc3)cc(NC(=O)C3CC3)n2)cc1	4.19
CC(NC(=O)c1cc(-c2ccc(C(F)(F)F)cc2)cc(NC(=O)C2CC2)n1)c1ccc(C#N)cc1 (stereo not shown)	4.01
O=C(NC(=O)C1CC1)c1cc(-c2ccc(C(F)(F)C(F)(F)F)c(F)c2)cc(NC(=O)C2CC2)n1	4.62
N#Cc1ccc(CNC(=N)c2cc(-c3ccc(OC(F)(F)F)cc3)cc(NC(=O)C3CC3)n2)cc1	2.08
Cc1cc(-c2cc(NC(=O)C3CC3)nc(C(=O)NCc3ccc(C#N)cc3)c2)ccc1C(F)(F)C(F)(F)F	4.45
